targetSystem: HLA-A*69:01
testSummary: IEDB peptide-MHC binding, purified MHC/competitive/fluorescence; filed as Kd, often an IC50 or EC50 that approximates it; bounds were set here for any values at or beyond the usual limits of such assays
conditionsUsed: source organism: Araucaria virus
assayMetric: Kd

sequence GVPELGAFF , Kd observed: ≥ 20 µM

----------
targetSystem: HLA-A*01:01
testSummary: IEDB peptide-MHC binding, purified MHC/direct/fluorescence; filed as Kd, often an IC50 or EC50 that approximates it; bounds were set here for any values at or beyond the usual limits of such assays
conditionsUsed: source organism: SARS-CoV1
assayMetric: pKd
// field semantics: pKd = negative decimal log of concentration (mol/L)

sequence CADGTRHTY , pKd observed: 6.36

Measured values drawn from the Immune Epitope Database (IEDB) for this set.
